All values here come from PubChem BioAssay (NCI).

Assay: NCI Yeast Anticancer Drug Screen. Data for the wt2 strain (AID 169)
Settings: S. cerevisiae wt2 strain growth inhibition; at 100.0 µM; active compounds read high
The panel holds about 79,000 compounds, 15% with a hit somewhere; the sample as a whole holds those more often.
I'd appreciate it if you could label each record using growth inhibition and these ranges: low value = under 30%, medium value = from 30% up to 90%, high value = 90% and over

Task: Each molecule maps to one class by growth inhibition. Which class for O=C1OC(=O)C2CCCC3CCCC1C32 (stereo unspecified) ?
Result: high value

Task: Proceed to CN(C)c1ccc(Sc2ccc3nc(N)nc(N)c3c2)cc1
Result: low value

Task: Repeat with O=Nc1c(NO)ccc2nn(-c3ccccc3)nc12
Result: high value

Task: Moving on to Clc1ccccc1C1OC1c1ccccc1Cl (stereo unspecified)
Result: low value

Task: Next: O=[N+]([O-])c1cccc2nc3ccccc3c(NCCCN3CCOCC3)c12
Result: high value

Task: Also, COc1ccc(N=C2C(=O)Nc3ccc(Br)cc32)cc1 please.
Result: low value

Task: Also check O=C1C(Nc2ccccc2)=C(Oc2ccccc2)C(=O)c2ccccc21
Result: low value

Task: Please do the same for C[Si](C)(C)CNC(=O)OCc1ccccc1 as well.
Result: low value

Task: Entry CC[C@@]1(O)C(=O)OCc2c1cc1n(c2=O)Cc2cc3c(CN(C)C)c(O)ccc3nc2-1 please
Result: low value

Task: Further, for COC(=O)CCNc1c2ccccc2nc2cccc([N+](=O)[O-])c12 ?
Result: high value

Task: Query c1ccc2c(c1)-c1nc3ccccc3cc1C2N1CCOCC1 (stereo unspecified) next
Result: low value

Task: And CSC(=S)Nc1cccc(C)n1 ?
Result: medium value

Task: Would you kindly repeat that for O=C1Nc2ccc(Cl)c(I)c2C1=O ?
Result: medium value

Task: # repeat for COc1ccc(OC)c2cc3ccccc3cc12
Result: low value

Task: Can you check CC(Br)C(=O)c1ccc2cc(Br)c3ccccc3c2c1 (stereo unspecified) next?
Result: low value

Task: Follow-up item: CCOC(=O)C(NC(=O)c1ccccc1)(N1CCN(c2cc3c(cc2F)c(=O)c(C(=O)O)cn3C2CC2)CC1)C(F)(F)F (stereo unspecified)
Result: low value

Task: Another: CC1=NN(c2cccc(Cl)c2)C(=O)C1
Result: medium value

Task: Subsequent entry: O=C(c1ccc(Cl)cc1)C1OC12C(=O)Nc1ccccc12 (stereo unspecified)
Result: high value

Task: Now the molecule COc1cc(C2SCC(=O)N2c2nnc(C(F)(F)F)s2)cc(OC)c1OC (stereo unspecified)
Result: low value

Task: Next up: COc1cc2c(c(OC)c1OC)-c1c(cc3c(c1OC)OCO3)CC(C)C(C)(O)C2OC(=O)c1ccccc1 (stereo unspecified)
Result: high value

Task: Also check C/C(=N/NC(=S)N1CCCCCC1)c1cccc(/C(C)=N\NC(=S)N2CCCCCC2)n1
Result: medium value

Task: Another molecule: CCCCCCCCC/C=C/C=C/C(=O)NCC(=O)NC1C(O)C(O)C(Nc2ncnc3nc[nH]c23)OC1C(O)CO (stereo unspecified)
Result: medium value

Task: Continue with O=C(O)CNc1ccc(Cl)c(Cl)c1
Result: high value

Task: Please give the result for CCS(=O)(=O)c1ccc(/C=C/C=N/NC(=S)NCC(C)C)cc1 too.
Result: medium value

Task: Continue with Nc1ccn(C2OC(CO)C3[O][Sn]([c]4ccccc4)([c]4ccccc4)[O]C32)c(=O)n1 (stereo unspecified)
Result: medium value

Task: Request: CC(C)(CN1CCCCC1)C(=O)CC(SCCS(=O)(=O)O)c1ccc(Br)cc1 (stereo unspecified)
Result: medium value

Task: # iterate: Cc1c(C(=O)C(=O)c2ccccc2)c(C)c(C(=O)C(=O)c2ccccc2)c(C)c1C(=O)C(=O)c1ccccc1
Result: low value

Task: Request: CC1(C)[C@@H]2CC[C@]1(C)[C@H](OC(=O)CSC#N)C2
Result: high value

Task: How about Oc1cccc2c(Cl)ccnc12 ?
Result: high value

Task: What about CCN(CC)[P+](c1ccccc1O)(N(CC)CC)N(CC)CC ?
Result: medium value

Task: Param item: COC1=CC(=O)C2C(C1=O)C(c1ccc(Cl)cc1)[C@@H]2C (stereo partly specified)
Result: high value

Task: Next molecule: N#Cc1ccc(C2NN=CC23C(=O)c2ccccc2OC3c2ccccc2)cc1 (stereo unspecified)
Result: low value

Task: Then O=C(COC(=O)c1cc(O)c(O)c(O)c1)c1ccc(-c2ccccc2)cc1 ?
Result: high value

Task: Param item: Cn1c(N)nc(-c2ccc(Cl)cc2)c1SSc1c(-c2ccc(Cl)cc2)nc(N)n1C
Result: high value

Task: And CC[n+]1ccc2c(C)c3[nH]c4ccc(O)cc4c3c(C)c2c1 ?
Result: low value

Task: What do you get for CSC1=NNC(SC)=NN1 ?
Result: high value

Task: Can you handle Cc1ccc(S(=O)(=O)Oc2cc(Cl)c(Cl)cc2Cl)cc1 next?
Result: low value

Task: For N/C(=N\OC(=O)NC(Cl)=C(Cl)Cl)c1cc(C(F)(F)F)cc(C(F)(F)F)c1 then?
Result: high value

Task: Ok, now O=[N+]([O-])c1ccc([N+]2=NC(c3ccccc3)=NN(c3ccccc3)C2)cc1
Result: high value

Task: Now try CN1CCc2ccccc2C1Cc1ccccc1NC(=O)c1sc2ccccc2c1Cl (stereo unspecified) .
Result: high value

Task: Try this molecule too: Cc1ccc(NN(NC(=O)OC(C)C)C(=O)OC(C)C)cc1
Result: low value

Task: Now this one: O=C(Nc1ccc(Cl)cc1)OCC#CCCl
Result: high value

Task: Further, for O=C1C2C=CC1C1C(=O)OC(=O)C21 (stereo unspecified) ?
Result: low value

Task: Now consider CCOC(=O)[C@H]1Nc2ccccc2C2c3ccccc3CC21 (stereo partly specified) .
Result: medium value
